Data provenance is the supplement of paper PMC10724198.

Below, each entry is listed with its recorded protein stability index.
# Tested on: Saccharomyces cerevisiae
# PROTOCOL SUMMARY: protein stability index of tFT-peptide fusion (C-terminal peptide) (PSI (0-1 scale)); higher = more stable (slower turnover);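 also: PSI is a weighted mean of sequencing reads over stability bins, variants kept only with over 10 reads, mCherry proximal and sfGFP distal, peptide attached via GGGS linker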
# SETUP CONDITIONS: genetic background: wild type; temperature: 30 C
Answer with a number only.

Answered examples (2):
{"columns": ["CONSTRUCT SEQUENCE", "protein stability index"],
 "data": [
  ["PTDAFFGLCMDC", 0.68],
  ["RVMGRHIGRPRE", 0.702]
]}

query: Print Saccharomyces cerevisiae protein stability index for LRDTAPEPGPAP .
result: 0.69

query: Print Saccharomyces cerevisiae protein stability index for PVPKFKEPKIWW .
result: 0.698

query: Print Saccharomyces cerevisiae protein stability index for DSSCLVWYRCGC .
result: 0.719

query: Print Saccharomyces cerevisiae protein stability index for PSGAHLAHLLWL .
result: 0.719

query: Print Saccharomyces cerevisiae protein stability index for KDKKKENKNNGE .
result: 0.679

----------
Below, each entry is listed with its recorded protein stability index.
# Test system: Saccharomyces cerevisiae
# PROTOCOL SUMMARY: protein stability index of tFT-peptide fusion (C-terminal peptide) (PSI (0-1 scale)); higher = more stable (slower turnover)
# SETUP CONDITIONS: genetic background: wild type; temperature: 30 C

{"columns": ["CONSTRUCT SEQUENCE", "protein stability index"],
 "data": [
  ["SNKKRTRNEGKD", 0.611],
  ["PPLVPPPLRASP", 0.684],
  ["PRIGEARNLCYK", 0.682],
  ["YINIKKKKINKT", 0.688]
]}

Turning now to a further sequence:
query: Print Saccharomyces cerevisiae protein stability index for HHAHRLPTLATS .
result: 0.693

----------
# Test system: Saccharomyces cerevisiae
# PROTOCOL SUMMARY: protein stability index of tFT-peptide fusion (C-terminal peptide) (PSI (0-1 scale)); higher = more stable (slower turnover)
# SETUP CONDITIONS: genetic background: wild type; temperature: 30 C
READOUT KIND: protein stability index
Answer with a number only.

Answered examples (4):
{"columns": ["CONSTRUCT SEQUENCE", "protein stability index"],
 "data": [
  ["PRRQDSRLEQPD", 0.713],
  ["QPTCSLRAGPRD", 0.713],
  ["CTRLSQTSMGRG", 0.696],
  ["PQSKWQWHSGLT", 0.692]
]}

Turning now to a further sequence:
query: Using known records, supply protein stability index for ERKKKNPSTTRR
result: 0.684

----------
# System: Saccharomyces cerevisiae
# PROTOCOL SUMMARY: protein stability index of tFT-peptide fusion (C-terminal peptide) (PSI (0-1 scale)); higher = more stable (slower turnover)
# SETUP CONDITIONS: genetic background: wild type; temperature: 30 C
READOUT KIND: protein stability index

Answered examples (3):
{"columns": ["CONSTRUCT SEQUENCE", "MEASURED ON", "protein stability index"],
 "data": [
  ["CVGGFLEGIRLG", "Saccharomyces cerevisiae", 0.711],
  ["NKEIKKIRIKKE", "Saccharomyces cerevisiae", 0.664],
  ["APSRTPRQPPSH", "Saccharomyces cerevisiae", 0.716]
]}

query: Using known records, supply protein stability index for WSTVCKIAGAID
result: 0.706

query: Using known records, supply protein stability index for FSMRWTFRYWVN
result: 0.112

query: Using known records, supply protein stability index for KKIKKKQTTLKR
result: 0.665

query: Using known records, supply protein stability index for FLWLRLLEAFWF
result: 0.603

query: Using known records, supply protein stability index for LPACVVVRYCRF
result: 0.637

query: Using known records, supply protein stability index for DTTTQPMSYEDP
result: 0.669

query: Using known records, supply protein stability index for FVSRLWKIPTES
result: 0.583

query: Using known records, supply protein stability index for LAWALGESSPIG
result: 0.737

query: Using known records, supply protein stability index for GPVLILLSNNEM
result: 0.731

----------
Below, each entry is listed with its recorded protein stability index.
# System: Saccharomyces cerevisiae
# PROTOCOL SUMMARY: protein stability index of tFT-peptide fusion (C-terminal peptide) (PSI (0-1 scale)); higher = more stable (slower turnover)
# SETUP CONDITIONS: genetic background: das1 deletion; temperature: 30 C
Answer with a number only.

Answered examples (10):
{"columns": ["CONSTRUCT SEQUENCE", "protein stability index"],
 "data": [
  ["YVVCFFFKLFYF", 0.299],
  ["GTVRSLLKWRCS", 0.651],
  ["IGSFFLFFLLIF", 0.3],
  ["LFLVLFCVVGFV", 0.226],
  ["REGDLLKFKMRP", 0.637],
  ["LFFFRLFVFWVF", 0.238],
  ["AFYLCLYFMPVS", 0.371],
  ["LRPTFLLLFRPL", 0.377],
  ["TDVLLLQLLISV", 0.225],
  ["WFIFTITSVAGL", 0.0273]
]}

query: Using known records, supply protein stability index for VSFLVSIFVSGV
result: 0.216

query: Using known records, supply protein stability index for ALRLPPPPFSLY
result: 0.561

query: Using known records, supply protein stability index for SLVPSIFLFRIF
result: 0.544

query: Using known records, supply protein stability index for VSCLDLCFVISR
result: 0.503

query: Using known records, supply protein stability index for CILYLSWIIFRA
result: 0.198

query: Using known records, supply protein stability index for GVYRLCLLLLVY
result: 0.183

query: Using known records, supply protein stability index for TNEWMDVKVFCY
result: 0.499

----------
# System: Saccharomyces cerevisiae
# PROTOCOL SUMMARY: protein stability index of tFT-peptide fusion (C-terminal peptide) (PSI (0-1 scale)); higher = more stable (slower turnover)
# SETUP CONDITIONS: genetic background: wild type; temperature: 30 C
protein stability index vs 0.7: at or above is label 1, below is label 0.

query: Is the recorded value of protein stability index equal to or greater than 0.7 for this sequence? PPAPRPSTRHTP
result: label 1

query: Is the recorded value of protein stability index equal to or greater than 0.7 for this sequence? GLAIRRDWLGWV
result: label 1

query: Is the recorded value of protein stability index equal to or greater than 0.7 for this sequence? MPNQTEARRKWV
result: label 0

query: Is the recorded value of protein stability index equal to or greater than 0.7 for this sequence? PLAWSAPCRPHT
result: label 1

query: Is the recorded value of protein stability index equal to or greater than 0.7 for this sequence? PNLKLSPKWAKP
result: label 0

----------
Below, each entry is listed with its recorded protein stability index.
# System: Saccharomyces cerevisiae
# PROTOCOL SUMMARY: protein stability index of tFT-peptide fusion (C-terminal peptide) (PSI (0-1 scale)); higher = more stable (slower turnover)
# SETUP CONDITIONS: genetic background: wild type; temperature: 30 C
Answer with a number only.

Answered examples (3):
{"columns": ["CONSTRUCT SEQUENCE", "protein stability index"],
 "data": [
  ["SGKFVGCSFWMG", 0.62],
  ["HLFPSPPPSTLP", 0.495],
  ["RKKEKKERKERK", 0.66]
]}

query: Using known records, supply protein stability index for RGRFGYTSSTLA
result: 0.686

query: Using known records, supply protein stability index for APLLPPALALTC
result: 0.505

query: Using known records, supply protein stability index for HPPPTPPSPPPP
result: 0.667

query: Using known records, supply protein stability index for GFFRRNLGRVMD
result: 0.608

query: Using known records, supply protein stability index for RSPINSRRGGVV
result: 0.689

query: Using known records, supply protein stability index for PLAPLPMSPHLA
result: 0.572

query: Using known records, supply protein stability index for FCLGSFMFEGGR
result: 0.723

query: Using known records, supply protein stability index for VTNVTSETRVLT
result: 0.682

query: Using known records, supply protein stability index for RSPPPLPSPPSH
result: 0.709

query: Using known records, supply protein stability index for ESSPQPIPSRLA
result: 0.707

query: Using known records, supply protein stability index for YLPDPVVSLAHS
result: 0.656

query: Using known records, supply protein stability index for PPPYRPPPSSPG
result: 0.661

query: Using known records, supply protein stability index for AAGLNSWLRERW
result: 0.805

query: Using known records, supply protein stability index for PLPSFLYFILLR
result: 0.44

query: Using known records, supply protein stability index for IPPFLVSLPFLP
result: 0.702

----------
Below, each entry is listed with its recorded protein stability index.
# System: Saccharomyces cerevisiae
# PROTOCOL SUMMARY: protein stability index of tFT-peptide fusion (C-terminal peptide) (PSI (0-1 scale)); higher = more stable (slower turnover)
# SETUP CONDITIONS: genetic background: wild type; temperature: 30 C

{"columns": ["CONSTRUCT SEQUENCE", "protein stability index"],
 "data": [
  ["TNEWMDVKVFCY", 0.491],
  ["GGGWGVFVVLWW", 0.318],
  ["RAARQRSVYQHG", 0.648]
]}

Turning now to a further sequence:
query: Using known records, supply protein stability index for PYNLSSRPSTLL
result: 0.625
